// values below are reported EC50
System: hypoxia-inducible endogenous VEGF expression
experiment: Hypoxia-inducible endogenous VEGF expression ELISA in HeLa cells, dose-response EC50 (Table 3)
Assay type: cell-based, human
experimentalParameters: Homo sapiens; HeLa cells, hypoxic conditions (1% O2), VEGF ELISA of conditioned media; read-out: ELISA EC50

# molecule, readout, result
data = [
    ("N#CCOc1ccc(C2c3[nH]c4ccc(Cl)cc4c3CCN2C(=O)Oc2ccc(Br)cc2)cc1 (stereo not shown) [Compound 1547]", "EC50", "< 8 nM"),
    ("CCOC(=O)NC[C@@H](O)COc1ccc([C@H]2c3[nH]c4ccc(Cl)cc4c3CCN2C(=O)Oc2ccc(F)cc2)cc1 [Compound 1664]", "EC50", "< 8 nM"),
]

Query: // map O=C(NCC(O)CCOc1ccc([C@H]2c3[nH]c4ccc(Cl)cc4c3CCN2C(=O)Oc2ccc(Cl)cc2)cc1)c1ccccn1 (stereo partly shown) [Compound 1629] to recorded EC50 (system: hypoxia-inducible endogenous VEGF expression)
Result: < 8 nM

Query: // map CCOC(=O)NC[C@H](O)COc1ccc([C@H]2c3[nH]c4ccc(Cl)cc4c3CCN2C(=O)Oc2ccc(F)cc2)cc1 [Compound 1663] to recorded EC50 (system: hypoxia-inducible endogenous VEGF expression)
Result: < 8 nM

* * *

Test system: soluble VEGF121 and VEGF165 isoforms
experiment: VEGF inhibition EC50 by ELISA in the same human tumor cell lines (Table 25)
Type: cell-based
experimentalParameters: Homo sapiens, PL45; PL-45, 48 hours
pEC50: −log10 of the molar value.
readout: pEC50

Query: // map COc1ccc(C2c3[nH]c4ccc(Cl)cc4c3CCN2C(=O)Oc2ccc(Cl)cc2)cc1 (racemic) [Compound #10] to recorded pEC50 (system: soluble VEGF121 and VEGF165 isoforms)
Result: < 4.52

* * *

experiment: Phase 1 multiple-dose study in healthy volunteers: pharmacokinetics (Table 28)
Assay type: in vivo, human
experimentalParameters: both sexes, human, plasma, oral, 0.3 mg/kg, Stage 1, 0.3 mg/kg BID, Day 1, mean; read-out: C24 h
readout: concentration at 24 h (ng/mL)
Could you give me the number in ng/mL? Just the number is fine.

Query: What value of measured concentration at 24 h is listed for COc1ccc(C2c3[nH]c4ccc(Cl)cc4c3CCN2C(=O)Oc2ccc(Cl)cc2)cc1 (racemic) ?
Result: 94

* * *

Tested on: soluble VEGF121 and VEGF165 isoforms
experiment: VEGF inhibition EC50 by ELISA in the same human tumor cell lines (Table 25)
Type: cell-based
experimentalParameters: Homo sapiens, ASPC1; ASPC-1 (Pancreas), 48 hours
pEC50: −log10 of the molar value.
readout: pEC50

Query: What value of measured pEC50 is listed for COc1ccc(C2c3[nH]c4ccc(Cl)cc4c3CCN2C(=O)Oc2ccc(Cl)cc2)cc1 (racemic) ?
Result: < 4.52

* * *

experiment: Phase 1 multiple-dose study in healthy volunteers: pharmacokinetics (Table 28)
Format: in vivo, human
experimentalParameters: both sexes, human, plasma, oral; healthy volunteers, Stage 1 and Stage 2; read-out: Mean Tmax
readout: Tmax

Query: What value of measured Tmax is listed for COc1ccc(C2c3[nH]c4ccc(Cl)cc4c3CCN2C(=O)Oc2ccc(Cl)cc2)cc1 (racemic) ?
Result: ~3 h

* * *

Test system: hypoxia-inducible endogenous VEGF expression
experiment: Hypoxia-inducible endogenous VEGF expression ELISA in HeLa cells, dose-response EC50 (Table 3)
Type: cell-based, human
experimentalParameters: Homo sapiens, HeLa, read-out: ELISA EC50 μM
readout: EC50

# compound, EC50
rows = [
    ("CC(=O)N1CCN(CCCOc2ccc(C3c4[nH]c5ccc(Cl)cc5c4CCN3C(=O)Oc3ccc(Cl)cc3)cc2)CC1 (stereo not shown) [Compound 903]", "< 0.008 µM"),
    ("CC(=O)N1CCN(CC(O)COc2ccc(C3c4[nH]c5ccc(Cl)cc5c4CCN3C(=O)Oc3ccc(F)cc3)cc2)CC1 (stereo not shown) [Compound 637]", "< 0.008 µM"),
    ("O=C(CN1CCOCC1)Nc1ccc(C2c3[nH]c4ccc(Cl)cc4c3CCN2C(=O)Oc2ccc(Cl)cc2)cc1 (stereo not shown) [Compound 454]", "0.008 to 0.04 µM"),
    ("O=C(Oc1ccc(F)cc1)N1CCc2c([nH]c3ccc(Cl)cc23)C1c1ccc(OCCCCN2CCCCC2)cc1 (stereo not shown) [Compound 739]", "< 0.008 µM"),
    ("O=C(Oc1ccc(Cl)cc1)N1CCc2c([nH]c3ccc(Cl)cc23)C1c1ccc(OCCCCCCNCCO)cc1 (stereo not shown) [Compound 782]", "< 0.008 µM"),
    ("CN1CCN(CCCOc2ccc(C3c4[nH]c5ccc(Cl)cc5c4CCN3C(=O)Oc3ccccc3)cc2)CC1 (stereo not shown) [Compound 1076]", "0.04 to 0.2 µM"),
    ("O=C(Oc1ccc(Cl)cc1)N1CCc2c([nH]c3ccc(Cl)cc23)[C@@H]1c1ccc(OCCCNC2CCCC2)cc1 [Compound 1235]", "0.008 to 0.04 µM"),
    ("CN1CCC(OCCCOc2ccc(C3c4[nH]c5ccc(Cl)cc5c4CCN3C(=O)Oc3ccc(Cl)cc3)cc2)CC1 (stereo not shown) [Compound 1554]", "> 1 µM"),
    ("CN1CCCC(COc2ccc(C3c4[nH]c5ccc(Cl)cc5c4CCN3C(=O)Oc3ccc(F)cc3)cc2)C1 (stereo not shown) [Compound 932]", "< 0.008 µM"),
    ("CC(=O)N1CCN(CCCOc2cccc(C3c4[nH]c5ccc(Cl)cc5c4CCN3C(=O)Oc3ccc(F)cc3)c2)CC1 (stereo not shown) [Compound 1364]", "0.04 to 0.2 µM"),
]

Query: What value of measured EC50 is listed for O=C(Oc1ccc(Cl)cc1)N1CCc2c([nH]c3ccc(Cl)cc23)C1c1ccc(OCCCOCCN2CCOCC2)cc1 (stereo not shown) [Compound 1555] ?
Result: < 0.008 µM

Query: What value of measured EC50 is listed for NCC(O)COc1ccc(C2c3[nH]c4ccc(Cl)cc4c3CCN2C(=O)Oc2ccc(Cl)cc2)cc1 (stereo not shown) [Compound 846] ?
Result: 0.04 to 0.2 µM

Query: What value of measured EC50 is listed for CC(=O)N1CCN(CCCOc2ccc(C3c4[nH]c5ccc(Cl)cc5c4CCN3C(=O)Oc3ccc(F)cc3)cc2)CC1 (stereo not shown) [Compound 988] ?
Result: < 0.008 µM

Query: What value of measured EC50 is listed for CN(C)CCN(C)CCCOc1ccc([C@H]2c3[nH]c4ccc(Cl)cc4c3CCN2C(=O)Oc2ccc(Cl)cc2)cc1 [Compound 1611] ?
Result: < 0.008 µM

Query: What value of measured EC50 is listed for O=C(Oc1ccc(F)cc1)N1CCc2c([nH]c3ccc(Cl)cc23)C1c1ccc(OCCCCCCNCCCn2ccnc2)cc1 (stereo not shown) [Compound 779] ?
Result: 0.04 to 0.2 µM

Query: What value of measured EC50 is listed for O=C(Oc1ccc(F)cc1)N1CCc2c([nH]c3ccc(Cl)cc23)C1c1ccc(OCCCN2CCSCC2)cc1 (stereo not shown) [Compound 991] ?
Result: 0.04 to 0.2 µM

Query: What value of measured EC50 is listed for COc1cc(C2c3[nH]c4ccc(Cl)cc4c3CCN2C(=O)Oc2ccccc2)ccc1OCCCN1CCOCC1 (stereo not shown) [Compound 1130] ?
Result: 0.008 to 0.04 µM

Query: What value of measured EC50 is listed for O=C(Oc1ccc(F)cc1)N1CCc2c([nH]c3ccc(Cl)cc23)C1c1ccc(OCC(O)CN2CCOCC2)cc1 (stereo not shown) [Compound 638] ?
Result: < 0.008 µM

Query: What value of measured EC50 is listed for CCCN(CCC)CCCOc1ccc([C@H]2c3[nH]c4ccc(Cl)cc4c3CCN2C(=O)Oc2ccc(Cl)cc2)cc1 [Compound 1234] ?
Result: < 0.008 µM

Query: What value of measured EC50 is listed for COCCN(CCCOc1ccc(C2c3[nH]c4ccc(Cl)cc4c3CCN2C(=O)Oc2ccc(F)cc2)cc1)CCOC (stereo not shown) [Compound 990] ?
Result: < 0.008 µM

Query: What value of measured EC50 is listed for CC(C)NCCCCCCOc1ccc(C2c3[nH]c4ccc(Cl)cc4c3CCN2C(=O)Oc2ccc(F)cc2)cc1 (stereo not shown) [Compound 774] ?
Result: 0.008 to 0.04 µM

Query: What value of measured EC50 is listed for COCCN1CCN(C(=O)COc2ccc(C3c4[nH]c5ccc(Cl)cc5c4CCN3C(=O)Oc3ccc(OC)cc3)cc2)CC1 (stereo not shown) [Compound 1025] ?
Result: 0.04 to 0.2 µM

Query: What value of measured EC50 is listed for O=C1CN(CCCOc2ccc(C3c4[nH]c5ccc(Cl)cc5c4CCN3C(=O)Oc3ccc(Cl)cc3)cc2)C(=O)N1 (stereo not shown) [Compound 1672] ?
Result: < 0.008 µM

Query: What value of measured EC50 is listed for O=C(Oc1ccc(F)cc1)N1CCc2c([nH]c3ccc(Cl)cc23)C1c1ccc(OCC(O)CN2CCSCC2)cc1 (stereo not shown) [Compound 925] ?
Result: < 0.008 µM

Query: What value of measured EC50 is listed for O=C(Oc1ccc(Cl)cc1)N1CCc2c([nH]c3ccc(Cl)cc23)[C@@H]1c1ccc(OC2CCN(C[C@H](O)CO)CC2)cc1 [Compound 1704] ?
Result: 0.008 to 0.04 µM

Query: What value of measured EC50 is listed for O=C(Oc1ccc(Cl)cc1)N1CCc2c([nH]c3ccc(Cl)cc23)[C@@H]1c1ccc(OCCC(O)CN(CCO)CCO)cc1 (stereo partly shown) [Compound 1280] ?
Result: 0.008 to 0.04 µM

Query: What value of measured EC50 is listed for COCCCNCCCCCCOc1ccc(C2c3[nH]c4ccc(Cl)cc4c3CCN2C(=O)Oc2ccc(Cl)cc2)cc1 (stereo not shown) [Compound 785] ?
Result: < 0.008 µM

Query: What value of measured EC50 is listed for CN1CCCC(COc2ccc(C3c4[nH]c5ccc(Cl)cc5c4CCN3C(=O)Oc3ccccc3)cc2)C1 (stereo not shown) [Compound 952] ?
Result: 0.008 to 0.04 µM
